- testMethodNotes: Aqueous solubility of the compound in phosphate-buffered saline at pH 7.2 after 1 to 24 hrs
- Assay type: physicochemical
quantityName: solubility

{"molecularString": "COc1c(Cl)cc(-c2ccc(C(=O)c3c(F)ccc(O)c3F)s2)cc1Cl", "experimentalResult": "< 5 µM"}
{"molecularString": "Cc1cc(-c2ccc(C(=O)c3cc(F)cc(O)c3C)s2)cc(C)c1O", "experimentalResult": "100 to 200 µM"}

Turning now to a further record.
Which solubility value is on record for Cc1cc(-c2ccc(C(=O)c3c(F)ccc(O)c3F)s2)cc(C)c1O ?
15 to 25 µM

* * *

Measured half-life at 1 µM values are reported for all entries that follow.
- testMethodNotes: Half life in human liver S9 fraction at 1 uM in presence of NADPH
- Assay type: ADME, subcellular

{"molecularString": "Cc1cc(-c2ccc(C(=O)c3c(F)ccc(O)c3F)s2)cc(C)c1O", "half-life at 1 µM": "< 5 min"}
{"molecularString": "COc1c(Cl)cc(-c2ccc(C(=O)c3c(F)ccc(O)c3F)s2)cc1Cl", "half-life at 1 µM": "< 5 min"}

Could you tell me which half-life at 1 µM is on file for COc1c(Cl)cc(-c2ccc(C(=O)c3c(Cl)ccc(O)c3F)s2)cc1Cl ?
< 5 min
